Tested on: Saccharomyces cerevisiae
Assay: protein stability index of tFT-peptide fusion (C-terminal peptide) (PSI (0-1 scale)); higher = more stable (slower turnover);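 note: PSI is a weighted mean of sequencing reads over stability bins, variants kept only with over 10 reads, mCherry proximal and sfGFP distal, peptide attached via GGGS linker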
Details: genetic background: wild type; temperature: 30 C
Use Condition met when the recorded protein stability index is no lower than 0.7; use Condition not met when it is lower.

>>> print(df.to_string())
    ordered_residues              class
 0      VAAKAHPLASMS  Condition not met
 1      GGSSEKVLCIWR      Condition met
 2      VRGGGRARRRGS      Condition met
 3      TTVAIPSINRYS  Condition not met
 4      QKKRKKPGKWKS  Condition not met
 5      AFRISLSCPISL  Condition not met
 6      LSVRLYRTVFLV  Condition not met
 7      PLATSLIGLFVV  Condition not met
 8      RGHKATNICHSV      Condition met
 9      ESSTGYSPPLPV  Condition not met
10      HDVGEYVKKNRF  Condition not met
11      RKKVRKTKKIKK  Condition not met
12      VVHECIGVYGTV  Condition not met
13      CFCLFVFFISSC  Condition not met
14      LPPSPILFPASP      Condition met
15      PLPLLPTNPSPP  Condition not met
16      RFLPALSRSLPS      Condition met
17      GACIRLLPSFGY  Condition not met
18      PRLPPRSPRPPA      Condition met

----------
Test system: Saccharomyces cerevisiae
Experiment: protein stability index of tFT-peptide fusion (C-terminal peptide) (PSI (0-1 scale)); higher = more stable (slower turnover)
Conditions: genetic background: das1 deletion; temperature: 30 C
PARAMETER: protein stability index

In [3]: df
Out[3]:
    ordered_residues                parameter  readout_value
 0      ACGAGFIILLGL  protein stability index          0.524
 1      ELNERRKRLVTN  protein stability index          0.661
 2      APTMAIIVVHVR  protein stability index           0.22
 3      GGYGAGLRSPLF  protein stability index          0.676
 4      FSGRYFLLFRFL  protein stability index          0.341
 5      ALFISLAIWNWS  protein stability index          0.165
 6      LVCLTPPPSPFS  protein stability index          0.323
 7      SYALGNVVGGSL  protein stability index          0.637
 8      RGKVVRGLLFCA  protein stability index          0.624
 9      TLRINSPFYFLS  protein stability index          0.654
10      RSAVECRVTNIR  protein stability index          0.637
11      SLRSRSLRCRLS  protein stability index          0.723
12      FFLLLVGFSVLG  protein stability index          0.238
13      FVLWLIYVDLFF  protein stability index          0.196
14      LVLVVFCPLWFW  protein stability index          0.401
15      QPTPQSALAKHQ  protein stability index          0.649
16      GFFLLSFLFFVR  protein stability index          0.212
17      FFVKGFRLLVFQ  protein stability index          0.421
18      MALAVRVVLCGA  protein stability index          0.165
